# method_summary: viability loss with induced miR-34 in A549 – imaging, A549 dox-inducible miR-34, nuclei and caspase counts, primary screen (AID 1347080)
# protocol_conditions: A549 miR-34 inducible, Hoechst nuclei count, 48 h; measured here: total cells with miR-34 induction; stronger effect = lower value
Criterion: cell count strictly less than 6000. Met: true. Not met: false.

As a guide, the following entries are already answered.
>>> print(df.to_string())
                                   molecule  group_label
0              CCCCCCCCCCCCCCCCC/C=C\C(=O)O         true
1      O/N=C/c1ccc(-c2ccc(O)c(F)c2)c(Cl)c1O        false
2  O=C1OC2(c3ccc(O)cc3Oc3cc(OS(=O)(=O)c4c(F)c(F)c(F)c(F)c4F)ccc32)c2ccccc21 (stereo not given)        false
3  O=C(O)CCC/C=C\C[C@@H]1[C@@H](/C=C/C(F)(F)COc2ccccc2)[C@H](O)C[C@@H]1O         true

# input Find out if reported cell count for CC1=C(C(=O)OCCN(Cc2ccccc2)c2ccccc2)C(c2cccc([N+](=O)[O-])c2)C(P2(=O)OCC(C)(C)CO2)=C(C)N1 (stereo not given) is less than 6000
# output true

---

# method_summary: MELAS cybrid and Rieske KO viability enhancers – cell-based, MELAS cybrids, Rieske KO mouse fibroblasts, CellTiter-Glo, primary screen (AID 1508586);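 note: z relative to plate mean and SD of compound and empty wells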
# protocol_conditions: MELAS cybrid survival, low glucose, CellTiter-Glo 48 h; stronger effect = higher value
# cutoff -0.4 applies to z-score; >= gives 1.0, < gives 0.0

As a guide, the following entries are already answered.
>>> df
                              smiles_string  group_label
0  C=CC(=O)Nc1cccc(Sc2nc(Nc3ccc(N4CCN(C)CC4)cc3)ncc2Cl)c1          0.0
1  Cc1cn(-c2cc(NC(=O)c3ccc(C)c(Nc4nccc(-c5cccnc5)n4)c3)cc(C(F)(F)F)c2)cn1          1.0
2  CC(C)(C)[C@]1(O)CCN2C[C@H]3c4ccccc4CCc4cccc(c43)[C@@H]2C1          1.0
3  O=C(CCCCCCNC(=O)c1cnc(N(c2ccccc2)c2ccccc2)nc1)NO          0.0
4  CN1CCN(c2cccc(Nc3nc4c(-c5ccc(S(C)(=O)=O)cc5)cccn4n3)c2)CC1          1.0
5  CCN(CCO)CCCOc1ccc2c(Nc3cc(CC(=O)Nc4cccc(F)c4)[nH]n3)ncnc2c1          1.0

# input Say whether Cc1cc(CN2CCN(c3c(Br)cnc4nc(-c5ccc(N6CCN(C)CC6)cc5)[nH]c34)CC2)no1 shows z-score of -0.4 or more.
# output 0.0

# input Say whether COc1ccc(-c2nc(N3CCOCC3)c3sc(CN(C)c4ncc(C(=O)NO)cn4)cc3n2)cn1 shows z-score of -0.4 or more.
# output 1.0

# input Say whether CC1(C)Cc2c(-c3ccccc3)c(-c3ccc(Cl)cc3)c(CC(=O)O)n2C1 shows z-score of -0.4 or more.
# output 1.0

---

# method_summary: viability loss in pontine glioma line – cell-based, SU-DIPG-IV, MIPE4.0, CellTiter-Glo, qHTS, dose response (AID 1347063);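 note: compound exposure lasted 48 hours before the viability readout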
# protocol_conditions: CellTiter-Glo ATP luminescence
Inconclusive results are not listed. Activity calls are given as the source filed them. The limit is not given here; nearly all actives have AC50 up to about 30 µM.
Respond with a class label; see active, inactive

As a guide, the following entries are already answered.
compound	group_label
Cn1cc(-c2ccncc2)c(-c2ccc(OCc3ccc4ccccc4n3)cc2)n1	inactive
CCCCCCCCCCCCc1ccc(S(=O)(=O)Nc2nncs2)cc1	inactive
CNC(=O)c1ccc(Nc2cc(Nc3ccccc3S(=O)(=O)C(C)C)c3cc[nH]c3n2)nc1	active
Cc1nc(NC(=O)N2CCC[C@H]2C(N)=O)sc1-c1ccnc(C(C)(C)C(F)(F)F)c1	active
Cc1c(NC(=O)c2ccc(C(C)(C)C)cc2)cccc1-c1cn(C)c(=O)c(Nc2ccc(C(=O)N3CCOCC3)cc2)n1	active

# input Could you kindly confirm the outcome this assay logged for CN(C)CCN(C)C(=O)c1ccc(NC(=O)Nc2ccc(-c3nc(N4CCOCC4)c4ccn(CC(F)(F)F)c4n3)cc2)cc1 ?
# output active

# input Could you kindly confirm the outcome this assay logged for C=C[C@H]1CN2CCC1C[C@@H]2C(O)c1ccnc2ccc(OC)cc12 (stereo partly drawn) ?
# output inactive

# input Could you kindly confirm the outcome this assay logged for CC(C)(O)[C@H]1CC[C@@](C)([C@H]2[C@@H](O)C[C@@]3(C)[C@@H]4C[C@H](O[C@@H]5O[C@H](CO)[C@@H](O)[C@H](O)[C@H]5O)[C@H]5C(C)(C)[C@@H](O[C@@H]6OC[C@@H](O)[C@H](O)[C@H]6O)CC[C@@]56C[C@@]46CC[C@]23C)O1 ?
# output inactive

---

# method_summary: drug combination growth inhibition, ovarian cancer – cell-based, oncology-focused library, rucaparib conditional, profiling panel (AID 1508598)
# protocol_conditions: patient-derived ovarian cancer cells, CellTiter-Glo viability, 144 h; at 0.313 µM; OCI-P5x cells; without rucaparib; stronger effect = lower value
Measured viability of individual entries
The figure you give is taken to be in %; do not add the unit.

Please review the following examples before continuing.
>>> print(df.to_string())
                                   compound  readout_name  units_text  experimental_value
0  C=CC(=O)Nc1cccc(Nc2nc(Nc3ccc(NC4CN(CCF)C4)cc3OC)ncc2C(F)(F)F)c1     viability           %                 104
1  Cn1cc(-c2ccc3c(c2)CCN3C(=O)Cc2cccc(C(F)(F)F)c2)c2c(N)ncnc21     viability           %                 107
2  Cc1ccc(S(=O)(=O)Nc2nc3ccccc3nc2Nc2ccc3nsnc3c2)cc1     viability           %                 106

# input Data request, read-out viability, for CNC(=O)c1ccc(C)c(-n2c(C)cc(OCc3ccc(F)cc3F)c(Br)c2=O)c1
# output 112

# input Data request, read-out viability, for COc1c(C)cnc(Cn2cnc3c(Cl)nc(N)nc32)c1C
# output 9.78

# input Data request, read-out viability, for O=C(NCCCNc1nc(Nc2cccc(NC(=O)N3CCCC3)c2)ncc1I)c1cccs1
# output 99.8

# input Data request, read-out viability, for Cc1ccc(C(=O)N(CCCN)[C@@H](c2oc3cc(Cl)ccc3c(=O)c2Cc2ccccc2)C(C)C)cc1
# output 19.2

# input Data request, read-out viability, for C[C@@H](Oc1cc(-n2cnc3ccc(CN4CCN(C)CC4)cc32)sc1C(N)=O)c1ccccc1C(F)(F)F
# output 13.4

# input Data request, read-out viability, for CC(C)CC(=O)Nc1n[nH]c2c1CN(C(=O)C1CCN(C)CC1)C2(C)C
# output 96

# input Data request, read-out viability, for O=S(=O)(O)CCSSCCS(=O)(=O)O
# output 97.9

# input Data request, read-out viability, for Cc1nc(N)sc1-c1ccnc(Nc2ccc(N3CCOCC3)cc2)n1
# output 113

# input Data request, read-out viability, for CCC[C@H](Nc1nc(-c2ccc(NC(=O)NCC)c(OC)c2)ncc1C)c1cccnc1
# output 11

# input Data request, read-out viability, for CN1CCN(c2ccc3nc(-c4c(N)c5c(F)cccc5[nH]c4=O)[nH]c3c2)CC1
# output 104

# input Data request, read-out viability, for Cc1cn(-c2cc(NC(=O)c3ccc(C)c(Nc4nccc(-c5cccnc5)n4)c3)cc(C(F)(F)F)c2)cn1
# output 103

# input Data request, read-out viability, for Cc1ccc(C(=O)N(CCCN)[C@@H](c2nc3cc(Cl)ccc3c(=O)n2Cc2ccccc2)C(C)C)cc1
# output 22.4

# input Data request, read-out viability, for O=C(O)c1ccc2c(c1)nc(Nc1cccc(Cl)c1)c1ccncc12
# output 107

---

Measured inhibition of individual entries
# method_summary: growth inhibition, single agents and combos, ICB984, cell-based, cisplatin or BGB combos, synergistic combos for chromothripsis tumors (AID 1671451);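 note: cells exposed for 96 hours before readout; 0% = vehicle DMSO and 100% = killing by high DMSO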
# protocol_conditions: ICB984 medulloblastoma cells, drug combinations, measured here: 5 uM single agent, at 5 µM, stronger effect = higher value
The figure you give is taken to be in %; do not add the unit.

Please review the following examples before continuing.
molecule	inhibition, %
O=C(O)[C@H](Cc1c[nH]c2ccccc12)N1C(=O)c2ccccc2C1=O	3.99
CO[C@H]1/C=C/O[C@@]2(C)Oc3c(C)c(O)c4c(O)c(c(/C=N\N5CCN(C6CCCC6)CC5)c(O)c4c3C2=O)NC(=O)/C(C)=C\C=C\[C@H](C)[C@H](O)[C@@H](C)[C@@H](O)[C@@H](C)[C@H](OC(C)=O)[C@@H]1C	-17.8
NC1CCC(N[C@@H]2C[C@H]2c2ccccc2)CC1 (some centres undefined)	-0.182

Then this molecule:
# input Data request, read-out inhibition, for COc1ccc(C(=O)CC2(O)C(=O)Nc3c(Cl)ccc(Cl)c32)cc1 (centres undefined)
# output -28.8

Ref: PubChem BioAssay
